Assay: logD 7.4
Assay type: physicochemical
Settings: pH 7.4
READOUT: logD

Which logD is listed for OCCn1c(CNCCCNc2nc3ccccc3[nH]2)cc2c(Cl)cc(Cl)cc21 [Compound 1] ?
4

====

Assay: Aqueous solubility
Type: physicochemical
READOUT: solubility

Which solubility is listed for OCCn1c(CNCCCNc2nc3ccccc3[nH]2)cc2c(Cl)cc(Cl)cc21 ?
6.33 µM

====

System: 1433-resistant T. brucei
Assay: microbe, parasite or virus in culture
Type: cell-based, Trypanosoma brucei
Conditions: Trypanosoma brucei, read-out: 1433 resistant EC50
Reported EC50 values are given for each entry in this list.
The answer is to be given in nM; state only the numeric part.

INSERT INTO results (compound, numeric_readout) VALUES
  ('OCCn1c(CNCCCNc2nc3ccccc3[nH]2)cc2c(Cl)cc(Cl)cc21 [Compound 1]', 14);

Now let's try a different one.
Which EC50 is listed for N=C(N)c1ccc(OCCCCCOc2ccc(C(=N)N)cc2)cc1 [Pentamidine, reference compound] ?
1.1

====

Test: Mouse plasma and brain pharmacokinetics
Assay type: in vivo, female BALB/c mice
Settings: female, BALB/c, brain, ip, 10 mg/kg
READOUT: concentration at 24 h (ng/g)
The answer is to be given in ng/g; state only the numeric part.

Which concentration at 24 h is listed for OCCn1c(CNCCCNc2nc3ccccc3[nH]2)cc2c(Cl)cc(Cl)cc21 ?
31.6

====

Experiment: MRC5-SV2 human lung cell toxicity
Assay type: cell-based
Conditions: MRC5-SV2 human lung cells
READOUT: pEC50
Please note pEC50 is a logarithmic value: minus log10 of concentration in mol/L. Answer with that number alone.

Which pEC50 is listed for OCCn1c(CNCCCNc2nc3ccccc3[nH]2)cc2c(Cl)cc(Cl)cc21 ?
4.92

====

Experiment: Human plasma protein binding
Format: in vitro ADME
READOUT: fraction unbound

Which fraction unbound is listed for OCCn1c(CNCCCNc2nc3ccccc3[nH]2)cc2c(Cl)cc(Cl)cc21 ?
< 0.001

====

Assay: Human liver microsome clearance
Type: in vitro ADME
Conditions: liver microsomes
READOUT: microsomal CLint

Which microsomal CLint is listed for OCCn1c(CNCCCNc2nc3ccccc3[nH]2)cc2c(Cl)cc(Cl)cc21 [Compound 1] ?
24 µL/min/mg
